Answer each item with its documented Anti-CD28 Fab (SEQ ID NOs: 696, 697) signal.
subjectOfTest: T1, Anti-CD28 Fab (SEQ ID NOs: 696, 697)
T1 construct: In the phage ELISA the Fab was biotinylated and captured on neutravidin coated plates
assaySummary: phage binding ELISA; clonal phage on plate-captured biotinylated anti-CD28 Fab, anti-M13 HRP detection
API note: the answer field is a bare number with no unit suffix.

Reported Anti-CD28 Fab (SEQ ID NOs: 696, 697) signal ( TCAAGAMWTWPECL [Phage-1528 (Peptide-92 library sequence, SEQ ID NO: 1824)] ) = 1.57

// sample MCTAGATYPWPACL [Phage-1531 (Peptide-92 library sequence, SEQ ID NO: 1827)] , its Anti-CD28 Fab (SEQ ID NOs: 696, 697) signal was 1.56

Entry under test: SCAAGAQYGWPMCL [Phage-1523 (Peptide-92 library sequence, SEQ ID NO: 1819)] . Its Anti-CD28 Fab (SEQ ID NOs: 696, 697) signal was 1.59

Noted for TCSAGAAYAWPYCL [Phage-1519 (Peptide-92 library sequence, SEQ ID NO: 1815)] : its Anti-CD28 Fab (SEQ ID NOs: 696, 697) signal reads 1.59
